Quick reference for binding intensity among some binders
tested.system: T1, human ROR2 expressed on the cell surface (human, UniProt Q01974 34-943)
T1 construct: Endogenous ROR2 of human tumour cell lines; also called cell surface ROR2; ROR2 on tumour cell lines
T1 sequence (Q01974 34-943 limits assumed): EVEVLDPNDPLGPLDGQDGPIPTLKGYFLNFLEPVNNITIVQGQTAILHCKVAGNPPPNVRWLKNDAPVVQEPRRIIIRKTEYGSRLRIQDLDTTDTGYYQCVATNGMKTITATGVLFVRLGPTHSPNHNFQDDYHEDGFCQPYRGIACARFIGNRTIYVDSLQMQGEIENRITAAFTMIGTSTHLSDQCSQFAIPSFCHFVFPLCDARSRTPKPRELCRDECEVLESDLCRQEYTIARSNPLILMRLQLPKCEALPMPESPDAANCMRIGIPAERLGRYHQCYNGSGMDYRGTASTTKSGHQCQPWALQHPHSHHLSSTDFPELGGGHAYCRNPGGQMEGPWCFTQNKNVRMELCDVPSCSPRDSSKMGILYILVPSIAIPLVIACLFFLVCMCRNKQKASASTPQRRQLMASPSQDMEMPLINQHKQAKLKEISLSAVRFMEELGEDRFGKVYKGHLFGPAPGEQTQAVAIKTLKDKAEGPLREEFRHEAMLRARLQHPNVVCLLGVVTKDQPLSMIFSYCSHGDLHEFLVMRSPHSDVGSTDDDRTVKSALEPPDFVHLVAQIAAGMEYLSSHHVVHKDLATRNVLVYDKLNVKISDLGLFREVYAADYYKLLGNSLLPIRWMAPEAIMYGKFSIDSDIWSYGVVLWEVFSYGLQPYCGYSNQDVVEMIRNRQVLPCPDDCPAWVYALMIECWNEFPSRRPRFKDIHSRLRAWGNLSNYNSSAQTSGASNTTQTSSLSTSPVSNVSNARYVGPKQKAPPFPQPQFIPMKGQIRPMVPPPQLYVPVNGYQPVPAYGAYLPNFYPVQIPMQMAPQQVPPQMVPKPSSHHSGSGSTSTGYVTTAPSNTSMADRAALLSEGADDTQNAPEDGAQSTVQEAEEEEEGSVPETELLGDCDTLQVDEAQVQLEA
test.description: flow cytometry, COLO 205 cells (CRC)
Design: unit not given here

Look over these answered cases.
ROR2-241 full length human IgG1 antibody (antibody, V domains shown) VH: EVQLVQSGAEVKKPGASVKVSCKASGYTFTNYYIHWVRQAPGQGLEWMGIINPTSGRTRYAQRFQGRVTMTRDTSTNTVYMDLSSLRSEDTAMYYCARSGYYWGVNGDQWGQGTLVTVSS VL: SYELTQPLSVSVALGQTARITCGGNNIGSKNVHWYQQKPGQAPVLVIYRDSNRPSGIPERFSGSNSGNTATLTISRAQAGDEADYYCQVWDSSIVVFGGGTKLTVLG ... 24
ROR2-240 full length human IgG1 antibody (antibody, V domains shown, also called clone #240 IgG1) VH: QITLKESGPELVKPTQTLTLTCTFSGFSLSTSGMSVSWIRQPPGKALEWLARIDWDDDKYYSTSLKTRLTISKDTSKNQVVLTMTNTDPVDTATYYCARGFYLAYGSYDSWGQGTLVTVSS VL: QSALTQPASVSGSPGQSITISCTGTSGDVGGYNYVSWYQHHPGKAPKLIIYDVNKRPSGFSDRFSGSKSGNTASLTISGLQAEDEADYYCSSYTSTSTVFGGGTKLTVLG ... 4
ROR2-23 full length human IgG1 antibody (antibody, V domains shown, The light chain of clone 023 is labelled kappa; also called clone #23; clone #023 IgG1) VH: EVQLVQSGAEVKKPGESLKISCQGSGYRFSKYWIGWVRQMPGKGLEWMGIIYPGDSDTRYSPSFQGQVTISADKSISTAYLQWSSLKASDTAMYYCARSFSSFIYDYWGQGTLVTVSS VL: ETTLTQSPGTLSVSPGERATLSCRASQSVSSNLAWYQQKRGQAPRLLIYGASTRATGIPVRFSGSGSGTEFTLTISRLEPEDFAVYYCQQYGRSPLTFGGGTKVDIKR ... 26

Hello, please tell me recorded binding intensity for this one: ROR2-90 full length human IgG1 antibody (antibody, V domains shown, also called clone #90; antibody #90) VH: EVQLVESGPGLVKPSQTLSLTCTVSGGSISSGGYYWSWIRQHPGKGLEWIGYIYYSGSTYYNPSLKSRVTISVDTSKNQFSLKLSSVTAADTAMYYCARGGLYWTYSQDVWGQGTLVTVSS VL: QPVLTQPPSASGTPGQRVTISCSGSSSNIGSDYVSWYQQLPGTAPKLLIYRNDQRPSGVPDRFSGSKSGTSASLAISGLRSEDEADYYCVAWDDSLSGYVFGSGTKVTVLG 44
